# Protocol: Water-lipid distribution coefficient, log D of the compound at pH 7.4
# Format: physicochemical
I would appreciate it if you labelled entries Criterion met when logD is 2 or higher, otherwise Criterion not met.

Q. Can `O=C1/C(=C/c2ccccc2)Oc2c1ccc(O)c2CN1CCOCC1` be said to have logD at or above 2?
A. Criterion met

Q. Can `Nc1ccc(-c2ccc(/C=C3\Oc4ccccc4C3=O)cc2)cn1` be said to have logD at or above 2?
A. Criterion met

Q. Can `CN1CCN(Cc2c(O)ccc3c2O/C(=C\c2ccccc2)C3=O)CC1` be said to have logD at or above 2?
A. Criterion not met

Q. Can `Nc1ccc(-c2cccc(/C=C3\Oc4ccccc4C3=O)c2)cn1` be said to have logD at or above 2?
A. Criterion met

Q. Can `O=C1/C(=C/c2ccc(-c3cnc4ccccc4c3)cc2)Oc2ccccc21` be said to have logD at or above 2?
A. Criterion met

Q. Can `Nc1ccc(-c2ccc3c(c2)O/C(=C\c2ccccc2)C3=O)cn1` be said to have logD at or above 2?
A. Criterion met

Q. Can `CCN(CC)Cc1c(O)ccc2c1O/C(=C\c1ccccc1)C2=O` be said to have logD at or above 2?
A. Criterion not met

----------
# Protocol: Inhibition of Plasmodium falciparum falcipain-2
Endpoint name: pIC50
Expect pIC50 as a plain number equal to -log10 of the molar concentration.

Recorded result, `COc1cccc2c1O/C(=C\c1ccc(Cl)cc1Cl)C2=O` , pIC50: 4.73

----------
# Protocol: Lipid accumulation ratio of the compound
# Assay type: physicochemical
For each record, write down the corresponding Ratio.
Keep the answer to the number alone.

Recorded result, `Nc1ccc(-c2ccc3c(c2)O/C(=C\c2ccccc2)C3=O)cn1` , Ratio: 150233

Recorded result, `Nc1ccc(-c2ccc(/C=C3\Oc4ccccc4C3=O)cc2)cn1` , Ratio: 4643

Recorded result, `CCN(CC)Cc1c(O)ccc2c1O/C(=C\c1ccccc1)C2=O` , Ratio: 62

Recorded result, `O=C1/C(=C/c2ccccc2)Oc2c1ccc(O)c2CN1CCCCC1` , Ratio: 110

Recorded result, `CN1CCN(Cc2c(O)ccc3c2O/C(=C\c2ccccc2)C3=O)CC1` , Ratio: 10.6

Recorded result, `O=C1/C(=C/c2ccc(-c3cnc4ccccc4c3)cc2)Oc2ccccc21` , Ratio: 144366

Recorded result, `O=C1/C(=C/c2ccccc2)Oc2c1ccc(O)c2CN1CCOCC1` , Ratio: 265

Recorded result, `Nc1ccc(-c2cccc(/C=C3\Oc4ccccc4C3=O)c2)cn1` , Ratio: 4643

----------
For each record, write down the corresponding logD.
# Protocol: Water-lipid distribution coefficient, log D of the compound at pH 5.2
# Type: physicochemical
Keep the answer to the number alone.

Recorded result, `CCN(CC)Cc1c(O)ccc2c1O/C(=C\c1ccccc1)C2=O` , logD: -0.4

Recorded result, `CN1CCN(Cc2c(O)ccc3c2O/C(=C\c2ccccc2)C3=O)CC1` , logD: -3.33

Recorded result, `Nc1ccc(-c2cccc(/C=C3\Oc4ccccc4C3=O)c2)cn1` , logD: 2.7

Recorded result, `O=C1/C(=C/c2ccccc2)Oc2c1ccc(O)c2CN1CCCCC1` , logD: -0.15

Recorded result, `Nc1ccc(-c2ccc(/C=C3\Oc4ccccc4C3=O)cc2)cn1` , logD: 2.7

Recorded result, `Nc1ccc(-c2ccc3c(c2)O/C(=C\c2ccccc2)C3=O)cn1` , logD: 4.21

Recorded result, `O=C1/C(=C/c2ccc(-c3cnc4ccccc4c3)cc2)Oc2ccccc21` , logD: 5.08

Recorded result, `O=C1/C(=C/c2ccccc2)Oc2c1ccc(O)c2CN1CCOCC1` , logD: 1.19

----------
For each record, write down the corresponding Ratio.
# Protocol: Vacuolar accumulation ratio of the compound
# Type: ADME
Keep the answer to the number alone.

Recorded result, `Nc1ccc(-c2ccc(/C=C3\Oc4ccccc4C3=O)cc2)cn1` , Ratio: 9.2

Recorded result, `CN1CCN(Cc2c(O)ccc3c2O/C(=C\c2ccccc2)C3=O)CC1` , Ratio: 22589

Recorded result, `O=C1/C(=C/c2ccccc2)Oc2c1ccc(O)c2CN1CCCCC1` , Ratio: 155

Recorded result, `Nc1ccc(-c2cccc(/C=C3\Oc4ccccc4C3=O)c2)cn1` , Ratio: 9.2

Recorded result, `CCN(CC)Cc1c(O)ccc2c1O/C(=C\c1ccccc1)C2=O` , Ratio: 156

Recorded result, `O=C1/C(=C/c2ccc(-c3cnc4ccccc4c3)cc2)Oc2ccccc21` , Ratio: 1.19

Recorded result, `Nc1ccc(-c2ccc3c(c2)O/C(=C\c2ccccc2)C3=O)cn1` , Ratio: 9.2

Recorded result, `O=C1/C(=C/c2ccccc2)Oc2c1ccc(O)c2CN1CCOCC1` , Ratio: 17.2

----------
# Test system: Plasmodium falciparum
# Protocol: Antiplasmodial activity against chloroquine-resistant ring stage Plasmodium falciparum W2 infected in human RBC after 48 hrs by flow cytometric analysis
# Format: functional, organism-based
# Cond: W2, 48 h
pIC50: −log10 of the molar value.
Endpoint name: pIC50

Recorded result, `COc1cc(/C=C2\Oc3cc(O)ccc3C2=O)cc(OC)c1OC` , pIC50: < 5.00

Recorded result, `O=C1/C(=C/c2ccc(-c3ccc(F)cc3)cc2)Oc2ccccc21` , pIC50: < 5.00

Recorded result, `O=C1/C(=C/c2ccc(F)cc2F)Oc2cc(O)ccc21` , pIC50: < 5.00

Recorded result, `O=C1/C(=C/c2ccc(Cl)cc2Cl)Oc2ccccc21` , pIC50: < 5.00

Recorded result, `O=C1/C(=C/c2ccc(Br)cc2)Oc2ccccc21` , pIC50: 5.49

Recorded result, `O=C1/C(=C/c2ccccc2Br)Oc2ccccc21` , pIC50: < 5.00

Recorded result, `COc1cccc2c1O/C(=C\c1ccc(Cl)cc1Cl)C2=O` , pIC50: 5.32

Recorded result, `O=C1/C(=C/c2ccc(Oc3ccc(Cl)cc3)cc2)Oc2cc(O)ccc21` , pIC50: 5.01

Recorded result, `O=C1/C(=C/c2ccccc2)Oc2cc(O)ccc21` , pIC50: < 5.00

Recorded result, `Cc1ccc(Oc2ccc(/C=C3\Oc4cc(O)ccc4C3=O)cc2)cc1` , pIC50: 5.23

Recorded result, `O=C1/C(=C/c2ccc(F)cc2F)Oc2ccccc21` , pIC50: < 5.00

Recorded result, `O=Cc1ccc(-c2ccc(/C=C3\Oc4ccccc4C3=O)cc2)cc1` , pIC50: < 5.00

Recorded result, `O=C1/C(=C/c2ccc(NCc3ccccc3)cc2)Oc2ccccc21` , pIC50: 5.30

Recorded result, `O=C1/C(=C/c2ccc(Cl)cc2Cl)Oc2cc(O)ccc21` , pIC50: < 5.00

Recorded result, `COc1cccc2c1O/C(=C\c1ccc(F)cc1F)C2=O` , pIC50: < 5.00

Recorded result, `O=C1/C(=C/c2ccc(Nc3ccccc3)cc2)Oc2ccccc21` , pIC50: 5.07

Recorded result, `O=C1/C(=C/c2ccccc2)Oc2cc(-c3ccccc3)ccc21` , pIC50: < 5.00

Recorded result, `O=C1/C(=C/c2cccc(-c3ccc(F)cc3)c2)Oc2ccccc21` , pIC50: 5.36

Recorded result, `CN(C)c1ccc(/C=C2\Oc3cc(O)ccc3C2=O)cc1` , pIC50: < 5.00

Recorded result, O=C1/C(=C/c2ccccc2)Oc2ccccc21 [(Z)-AURONE] , pIC50: < 5.00

Recorded result, `O=C1/C(=C/c2ccc(-c3cnc4ccccc4c3)cc2)Oc2ccccc21` , pIC50: 5.18

Recorded result, `CCN(CC)Cc1c(O)ccc2c1O/C(=C\c1ccccc1)C2=O` , pIC50: 5.46

Recorded result, `O=Cc1ccc(-c2cccc(/C=C3\Oc4ccccc4C3=O)c2)cc1` , pIC50: < 5.00

Recorded result, `O=C1/C(=C/c2ccc(Oc3ccc(Cl)cc3)cc2)Oc2ccccc21` , pIC50: < 5.00

----------
For each record, write down the corresponding pIC50.
# System: Plasmodium falciparum
# Protocol: Antiplasmodial activity against chloroquine-resistant ring stage Plasmodium falciparum W2 infected in human RBC after 48 hrs by flow cytometric analysis
# Type: functional, organism-based
# Cond: W2, 48 h
Expect pIC50 as a plain number equal to -log10 of the molar concentration.

Recorded result, `O=C1/C(=C/c2cccc(Br)c2)Oc2ccccc21` , pIC50: 5.33

Recorded result, `O=C1/C(=C/c2cccc(-c3ccccc3)c2)Oc2ccccc21` , pIC50: 5.28

Recorded result, `Nc1ccc(-c2ccc3c(c2)O/C(=C\c2ccccc2)C3=O)cn1` , pIC50: 5.52

Recorded result, `CN1CCN(Cc2c(O)ccc3c2O/C(=C\c2ccccc2)C3=O)CC1` , pIC50: 5.40

Recorded result, `Nc1ccc(-c2cccc(/C=C3\Oc4ccccc4C3=O)c2)cn1` , pIC50: 5.59

Recorded result, `O=C1/C(=C/c2ccccc2)Oc2c1ccc(O)c2CN1CCOCC1` , pIC50: 5.48

Recorded result, `CN(C)c1ccc(/C=C2\Oc3ccccc3C2=O)cc1` , pIC50: 5.10

Recorded result, `O=C1/C(=C/c2ccc(Cc3ccccc3)cc2)Oc2ccccc21` , pIC50: 5.13

Recorded result, `Nc1ccc(-c2ccc(/C=C3\Oc4ccccc4C3=O)cc2)cn1` , pIC50: 5.43

Recorded result, `O=C1/C(=C/c2cccc(Cc3ccccc3)c2)Oc2ccccc21` , pIC50: 5.64

Recorded result, `O=C1/C(=C/c2ccccc2)Oc2c1ccc(O)c2CN1CCCCC1` , pIC50: 5.93
